# protocol: Pharmacokinetics after intravenous administration
# assay setup: C57BL/6, mouse, whole blood, 10 mg/kg
Square brackets hold non-standard residues; d marks the D form. Peptide text beside a SMILES is read from it.
observation type: AUC(0-inf)

Task: I have this molecule here, CC(C)C[C@@H]1NC(=O)[C@H](CCCNC(=N)N)NC(=O)[C@H](C(C)C)NC(=O)[C@@H]2CCCN2C(=O)[C@@H](Cc2ccccc2)NC(=O)[C@H](CC(C)C)NC(=O)[C@H](CCCNC(=N)N)NC(=O)[C@H]([C@@H](C)O)NC(=O)[C@H](C)NC(=O)[C@@H](Cc2ccccc2)NC1=O [XQ2B] (cyclo([dF]ATRL[dF]PVRL)) , and I need its recorded AUC(0-inf).
Result: 157 µg·h/mL

src = paper PMC10545747
